Reference source for all entries: patent US20260258084A1

# Test system: Pepsin
# Construct: purchased Merck Millipore
# protocol_description: Protease stability in simulated gastric fluid (Pepsin-SGF, FaSSGF)
# Type: in vitro ADME
# stated_conditions: simulated gastric fluid with pepsin (Pepsin-SGF), 60 min, 1 μM peptide, 37° C., read-out: FaSSGF 60 (min), remaining percent of peptide
Starred links: 1 amine or outer side, 2 acyl side, 3 side chain; linkers in the order of their positions; H or OH if unused. Positions of bridges follow the written chain, without caps; N, C: chain ends. Non-standard residues stand in square brackets, D forms with d. Residues, ends and D or L forms follow the SMILES beside them. *: point of attachment. X3 = CN(CCCCC(=O)N[C@@H](CS[*:2])C(=O)[*:1])[*:3]; Trp(7-Me) = Cc1cccc2c(C[C@H](N)C(=O)O)c[nH]c12; X1 = O=C(CCCCN[*:3])N[C@@H](CS[*:2])C(=O)[*:1]; 2Nal = N[C@@H](Cc1ccc2ccccc2c1)C(=O)O; AEF = NCCOc1ccc(C[C@H](N)C(=O)O)cc1; 3Pal = N[C@@H](Cc1cccnc1)C(=O)O; Thp = NC1(C(=O)O)CCOCC1; Me2NCH2CH2 = CN(C)CC*; Aib = CC(C)(N)C(=O)O; Ahx = NCCCCCC(=O)O; Ava = NCCCCC(=O)O; Sar = CNCC(=O)O
result_type: remaining at 1 h, 1 µM (%)
Quick reminder: number only, in %, skip the unit.

Query (compound): CC(=O)NCCCC[C@@H]1NC(=O)[C@H](Cc2c[nH]c3c(C)cccc23)NC(=O)[C@@H](NC(C)=O)CCCCNC(=O)[C@@H]2CSSC[C@H](NC1=O)C(=O)N[C@@H](Cc1ccc(OCCN(C)C)cc1)C(=O)N[C@@H](Cc1ccc3ccccc3c1)C(=O)NC1(CCOCC1)C(=O)N[C@H](C(=O)N[C@@H](CC(N)=O)C(=O)N[C@@H](Cc1cccnc1)C(=O)N(C)CC(N)=O)CCC(=O)NCCCCC(=O)N2 [compound 66] (Ac-K[Trp(7-Me)]K(Ac)CY(Me2NCH2CH2)[2Nal][Thp]EN[3Pal][Sar]-NH2; linker 1-4-8 via X1) ; field requested: remaining at 1 h, 1 µM
94

Query (compound): CC[C@H](C)[C@H](NC(=O)[C@H](CC(N)=O)NC(=O)[C@H](CC(N)=O)NC(=O)[C@@H]1CCC(=O)NCCCCC(=O)N[C@H]2CSSC[C@H](NC(=O)[C@H](CCCCNC(C)=O)NC(=O)[C@H](Cc3c[nH]c4ccccc34)NC(=O)[C@H]([C@@H](C)O)NC(=O)[C@H](CC(N)=O)NC2=O)C(=O)N[C@@H](Cc2ccc(OCCN(C)C)cc2)C(=O)N[C@@H](Cc2ccc3ccccc3c2)C(=O)NC(C)(C)C(=O)N1)C(N)=O [compound 38] ([Ava]CNTWK(Ac)CY(Me2NCH2CH2)[2Nal][Aib]ENNI-NH2; disulfide 2-7; lactam N-11) ; field requested: remaining at 1 h, 1 µM
86

Query (compound): CC(=O)N[C@H]1CCCCNC(=O)[C@@H]2CSSC[C@H](NC(=O)[C@H](CCC(N)=O)NC(=O)[C@H](Cc3c[nH]c4ccccc34)NC1=O)C(=O)N[C@@H](Cc1ccc(OCCN)cc1)C(=O)N[C@@H](Cc1ccc3ccccc3c1)C(=O)NC1(CCOCC1)C(=O)N[C@H](C(=O)N[C@@H](CC(N)=O)C(=O)NCC(N)=O)CCC(=O)N(C)CCCCC(=O)N2 [compound 16] (Ac-KWQC[AEF][2Nal][Thp]ENG-NH2; linker 1-4-8 via X3) ; field requested: remaining at 1 h, 1 µM
62

Query (compound): COc1ccc(C[C@@H]2NC(=O)[C@@H]3CSSC[C@H](NC(=O)CCCCCNC(=O)CC[C@@H](C(=O)N[C@@H](CC(N)=O)C(=O)N[C@@H](CC(N)=O)C(N)=O)NC(=O)C(C)(C)NC(=O)[C@H](Cc4ccc5ccccc5c4)NC2=O)C(=O)N[C@@H](CC(N)=O)C(=O)N[C@@H]([C@@H](C)O)C(=O)N[C@@H](Cc2c[nH]c4ccccc24)C(=O)N[C@@H](CCC(N)=O)C(=O)N3)cc1 [compound 2] ([Ahx]CNTWQCY(Me)[2Nal][Aib]ENN-NH2; disulfide 2-7; lactam N-11) ; field requested: remaining at 1 h, 1 µM
1

Query (compound): CC(=O)N[C@H]1CCCCNC(=O)[C@@H]2CSSC[C@H](NC(=O)[C@H](CCC(N)=O)NC(=O)[C@H](Cc3c[nH]c4ccccc34)NC1=O)C(=O)N[C@@H](Cc1ccc(OCCN)cc1)C(=O)N[C@@H](Cc1ccc3ccccc3c1)C(=O)NC(C)(C)C(=O)N[C@H](C(=O)N[C@@H](CC(N)=O)C(=O)N[C@@H](CC(N)=O)C(N)=O)CCC(=O)N(C)CCCCC(=O)N2 [compound 12] (Ac-KWQC[AEF][2Nal][Aib]ENN-NH2; linker 1-4-8 via X3) ; field requested: remaining at 1 h, 1 µM
53
